Assay: Toxicity liver stage against HepG2, at 10uM
Format: cell-based
Parameters: test concentration 10 uM, cell line HepG2-A16-CD81EGFP
Conditions: human, HepG2-A16-CD81EGFP cells; read-out: INHIBITION
Field: label. Allowed values: Fulfilled (cytotoxicity at 10 µM < -10%) or Not fulfilled (cytotoxicity at 10 µM >= -10%).

Cn1nc(CN2CCCC2)c2c1CN(C(=O)c1cnccn1)CC2 : Fulfilled

Check if cytotoxicity at 10 µM falls below -10% for CSc1ccccc1C(C(=O)O)N1CCN(Cc2ccccn2)CC1 (configuration not stated) .
Fulfilled

Check if cytotoxicity at 10 µM falls below -10% for CC(C)NC(=O)CS(=O)(=O)Cc1coc(-c2ccc(F)cc2)n1 .
Not fulfilled

Check if cytotoxicity at 10 µM falls below -10% for CN(CCOc1ccccc1F)C1CCOC1=O (configuration not stated) .
Fulfilled

Check if cytotoxicity at 10 µM falls below -10% for COCc1nn(C)c2c1CN(C(=O)c1ccno1)CC2 .
Not fulfilled

Check if cytotoxicity at 10 µM falls below -10% for Cc1csc(C2CCCN(C(=O)c3cccc4c3OCO4)C2)n1 (configuration not stated) .
Not fulfilled

Check if cytotoxicity at 10 µM falls below -10% for CC(NC(=O)NC1CCN(Cc2ccccc2)CC1)c1nncn1C (configuration not stated) .
Fulfilled

Check if cytotoxicity at 10 µM falls below -10% for CCC1CN(C(=O)c2ccccc2C(C)=O)CCN1C(C)C (configuration not stated) .
Not fulfilled

Check if cytotoxicity at 10 µM falls below -10% for O=C(c1cncc(N2CCC3(CCNCC3)CC2)n1)N1CCCC1 .
Fulfilled

Check if cytotoxicity at 10 µM falls below -10% for O=C(O)c1cncc(Cc2ccccc2F)c1 .
Not fulfilled

Check if cytotoxicity at 10 µM falls below -10% for O=C(CC[C@@H]1CCCN2CCCC[C@H]12)NCCc1cc(O)ncn1 .
Not fulfilled

Check if cytotoxicity at 10 µM falls below -10% for O=C(CN1CC(n2cccn2)C1)NCCc1ccc(F)cc1 .
Fulfilled
